Test system: MDA-MB-435
METHOD: NCI tumour cell line growth inhibition, 48 h
The source made the active and inactive calls. Rule as the data show it: active = GI50 up to about 1.1 µM and inactive = higher.
Answer with one of the outcomes given here: active, inactive

query: Could you kindly confirm the outcome this assay logged for Cc1ccc(Cc2n[nH]c(=O)[nH]2)cc1 ?
result: inactive

query: How did this test come out for COc1cc(OC)cc(-c2cc(=O)c3c(OC)c(OC)c(OC)c(OC)c3o2)c1 ?
result: inactive

query: Dear all, I need the recorded test outcome for O=C1OC[C@H]2[C@@H]1[C@H]1O[C@@H]2C2=C(CCC2)C1=O , thank you.
result: inactive

query: What did the test return for CO[C@@H]1C[C@H](OC(N)=O)[C@@H]2C=C[C@@H]3/C=C(C)/C=C/[C@@H](C)[C@H](/C(C)=C/[C@@H](C)NC(C)=O)OC(=O)/C=C/C=C(C)\C=C\[C@]3(C)[C@@H]2C1 [SUPERSTOLIDE B] ?
result: active

query: So what was the verdict on Cc1cc(OCc2nn(CN3CCN(C)CC3)c(=S)n2/N=C/c2ccc(-c3ccc(Cl)cc3Cl)o2)ccc1Cl in this test?
result: inactive

query: Look up the recorded call for COC(=O)C1=C(C(=O)OC)SC2(S1)C(C(=O)OC)=C(C(=O)OC)Sc1c2ss/c1=N\c1ccc(Cl)cc1 in this test.
result: active

query: Assay outcome for Cc1ccc(C2(c3ccc(Cl)cc3)c3ccccc3C3=NCCN32)cc1 (configuration not stated) : what was it?
result: inactive
